- experimentSummary: Human HepG2 cell viability assay in 384 well format
- Type: toxicity, cell-based
- Set-up: dose 125 nL, time 70.5 hour; concentration not given beside the values
- experimentalContext: HepG2 cells, read-out: Inhibition
// values below are reported cytotoxicity at 70.5 h
propertyName: cytotoxicity at 70.5 h (%)

> print(dat)
                                    compound  assayvalue
 1  COCCNC(=O)[C@H]1CN(Cc2nccs2)C[C@H]2OCC[C@@H]12       -2.35
 2  NC(=O)c1ccc(CN2CCCC(N3CCCC3)C2)cc1 (configuration not stated)       -7.14
 3     Cn1cc(-c2nc(CN3CCc4c(ncn4C)C3)cs2)cn1          31
 4     CN(Cc1cc2n(n1)CCCNC2)Cc1n[nH]c2c1CCC2       -13.3
 5        CCn1nc(C)cc1C(=O)N1CCOc2cc(C)ccc21       -7.11
 6    Cc1noc([C@@H](C)NCc2ccc(F)cc2)c1C(=O)O       -1.34
 7  COc1ccc(CN2CCN(C(C)c3nc(C4CC4)no3)CC2)cc1 (configuration not stated)       -6.65
 8          CNCC[C@H]1CC(C)(C)Oc2ccc(OC)cc21      -0.183
 9  CCN(CC1CCCO1)C(=O)CSCC(=O)Nc1ccc(C)cc1 (configuration not stated)       -1.48
10  CCOC(C)C(=O)Nc1ccc2c(ccn2CC)c1 (configuration not stated)        1.36
11   O=C(Nc1ccccc1)N1CCN(Cc2noc(C3CC3)n2)CC1       -7.64
12  Cc1cnn(CC(C)NCc2csc(-c3cccs3)n2)c1 (configuration not stated)       -22.3

---

// values below are reported cytotoxicity at 70.5 h
- experimentSummary: Human HepG2 cell viability assay in 384 well format
- Type: toxicity, cell-based
- Parameters: dose 125 nL, time 70.5 hour; concentration not given beside the values
- experimentalContext: HepG2 cells, read-out: Inhibition
propertyName: cytotoxicity at 70.5 h (%)

> print(dat)
                                    molecule  assayvalue
 1  COCC1CCN(C(C(=O)O)c2c(F)cccc2OC(C)C)CC1 (stereo not given)       -6.42
 2  Cc1noc(C)c1C(=O)NCC(O)c1ccc(F)cc1F (stereo not given)        27.1
 3  COc1ccccc1C(=O)Nc1c(F)c(C(=O)N2CCCC2)nn1C      -0.747
 4  COCCOCC(=O)N1CCC(c2ccccc2F)C1 (stereo not given)        -9.1
 5  CS(=O)(=O)NC[C@]12COC[C@H]1CN(C(=O)CCc1ccccc1)C2       -2.39
 6  Cc1ccc(CN(C)CC2(O)CCCN(C)C2)o1 (stereo not given)       -2.94
 7  CN(C)CCn1nc(C2CCN(Cc3ccccc3)C2)c2cccnc21 (stereo not given)        31.8
 8  N#Cc1ccc(CN2CCCCC2Cn2cccn2)cc1 (stereo not given)          16
 9  COCCN(C)C(C(=O)O)c1ccc(F)c(C)c1 (stereo not given)       -2.89
10  COc1ccc(S(=O)(=O)N2CCCC3(CCCN3S(C)(=O)=O)C2)cc1 (stereo not given)        8.26
11  Cc1cnn(C2CCCN(C(=O)c3ccc(C(N)=O)cn3)C2)c1 (stereo not given)        3.91
12  COc1ccc(Cc2ncc3c(n2)CN(C(=O)C(C)(C)C)C3)cc1       -1.36
13  CC(C)CN1CCCC2(CCN(C(=O)c3cnccn3)C2)C1 (stereo not given)       -14.6
14  Cc1nc(CN2CCCC(N(C)Cc3nccn3C)C2)no1 (stereo not given)        21.6
15  Cn1c(C(=O)N2CC[C@@]3(O)CCCC[C@H]3C2)cc2ccccc21       -3.98
16  CC(Cc1ccco1)NC(=O)NCc1ncnn1C (stereo not given)        3.51
17     CCn1cc(-c2nn3c(C(F)(F)F)nnc3s2)c(C)n1        -3.8
18  CC1c2ncc(CNC(=O)C3CC3)n2CCN1CC1CCC1 (stereo not given)       -10.3
19             O=C1CCNc2ccc(F)cc2CN1Cc1ccco1        2.21
20      COc1cc(CCC(=O)N2CCC(c3cnccn3)CC2)on1       -1.25
21  Cc1cc(C2CCCN(C(=O)COc3cc(C)on3)C2)n[nH]1 (stereo not given)       -3.29
22  O=C(Cc1ccccn1)N1CCC2(CCCN(CC3CCOCC3)C2)C1 (stereo not given)      -0.432
23       O=C(CCc1ccccc1F)N1CCC(Nc2cccnn2)CC1       -1.09
24  COc1ccc(CN(CC2CCCO2)C(=O)CN2CCCCC2=O)cc1 (stereo not given)       -12.9
25  NC(=O)c1ccc(C(=O)N2CCCCC2Cn2cccn2)s1 (stereo not given)        19.1

---

- experimentSummary: Human HepG2 cell viability assay in 384 well format
- Format: toxicity, cell-based
- Design: dose 125 nL, time 70.5 hour; concentration not given beside the values
- experimentalContext: HepG2 cells, read-out: Inhibition
// values below are reported cytotoxicity at 70.5 h
propertyName: cytotoxicity at 70.5 h (%)

> print(dat)
                                   compound  assayvalue
1  COc1ccc(-c2noc(C3=NN(C)C(=O)CC3)n2)cc1OC       -3.46
2           COCC(=O)N1CCN(CC2CC2)c2ncccc2C1        15.5
3  CCCS(=O)(=O)N1Cc2nccn2CC(Cn2cccn2)C1 (stereo unspecified)       -2.32
4  O=C(c1ccoc1)N1CC[C@@H]2O[C@@H](COCc3ccccn3)CC[C@@H]21        -3.1
5  O=C(NCc1ccon1)N1CCC(n2ccc(C(F)(F)F)n2)CC1       -94.1
6           COCCC(=O)N1CCc2cc(Cl)cc(Cl)c2C1       -2.57

---

- experimentSummary: Human HepG2 cell viability assay in 384 well format
- Format: toxicity, cell-based
- Parameters: dose 125 nL, time 70.5 hour; concentration not given beside the values
- experimentalContext: HepG2 cells, read-out: Inhibition
// values below are reported cytotoxicity at 70.5 h
propertyName: cytotoxicity at 70.5 h (%)

> print(dat)
                                    molecule  assayvalue
 1  Cc1nc(C)n(CC2CCCN2CCOc2ccc(F)cc2)n1 (stereo not drawn)       -9.83
 2       CNC(=O)NC(=O)CN1CCc2c(Br)ccc(F)c2C1      -0.281
 3            CN1CCC(NC(=O)NCc2csc(Br)c2)CC1       -10.7
 4   Cc1ccc(S(=O)(=O)N2CCC(N3CCCCC3)CC2)cc1C        5.06
 5      CCOc1cccc(CNC(=O)C(C)(C)C#N)c1OC(F)F       -2.64
 6  NS(=O)(=O)c1ccc(F)c(C(=O)NCCSc2ccccn2)c1       -4.06
 7  CC(C#N)CN(C)Cc1c(Cl)ccc2cccnc12 (stereo not drawn)          23
 8  Cc1ncsc1CN1CCn2c(COc3cccnc3)cnc2C1C (stereo not drawn)       -2.69
 9    CS(=O)(=O)N1CCN(C(=O)c2cnn3c2OCCC3)CC1       -2.74
10  CN1CCN(C(=O)c2cc3sccc3n2Cc2ccc(Cl)cc2)CC1       -5.06
11  CN(C(=O)c1ccc(Cl)c(S(C)(=O)=O)c1)c1ccccc1       0.806
12  CCOc1ccc(CNC(C)c2c(C)nn(C)c2C)cc1 (stereo not drawn)        20.4
13  COc1cc(C)ccc1OCCC(=O)N1CCC(N2CC=CC2)C1 (stereo not drawn)       -2.75
14  Cc1cc(C(=O)N2CCOC(c3ccc(Cl)c(Cl)c3)C2)[nH]n1 (stereo not drawn)       -8.67
15        Cc1ccccc1C(=O)Nc1cnn(CCN2CCOCC2)c1         5.4
16  CN1C[C@H](O)[C@]2(CCN(C(=O)COc3ccccc3)C2)S1(=O)=O        -5.4
17   CNC(=O)c1cccc(NC(=O)c2ccnc(N(C)C)c2)c1C      -0.673
18  Cn1ncc2c(N3CCCN4CCC[C@H]4C3)nc(C(C)(C)C)nc21       -7.18
19  Cc1nc(NC(=O)NC2CC(=O)N(C)C2)nn1C(C)C (stereo not drawn)        2.26
20  c1ccc(CO[C@@H]2C[C@H]3CN(c4ncccn4)CCN3C2)nc1       -7.06
21  CCOCC1CN(CCOCc2ccccc2)Cc2c1cnn2C (stereo not drawn)       -3.18
22  CNc1ncc(C(=O)N2CCC3(CC2)Nc2ccccc2NC3=O)cn1      -0.695
23       Cc1cccn2cc(CNS(=O)(=O)N3CCOCC3)nc12       -5.24
24  COc1cccc(S(=O)(=O)N2CCOC(C)(C(N)=O)C2)c1 (stereo not drawn)       -3.76
25     COc1c(CNCCNC(=O)Cc2ccc(F)cc2)c(C)nn1C        34.8
26  Cn1ccc2cc(C(=O)N3CC[C@@]4(O)CCCC[C@H]4C3)ccc21       -13.9
27  COCCN1CCC2(CCN(C(=O)c3ccc(F)cc3)CC2)C1=O        18.4
28  Cc1ccccc1N1CC2(CCCCN2CC2CC2)CC1=O (stereo not drawn)       -3.78
29  Cc1ccc(C(=O)N2Cc3c(CN4CCCCC4)nn(C)c3C2)o1         6.3
30                   COCCSc1ccc(-n2ccnc2)nn1        26.4
31  O=C(CC1CCc2ccccc21)NC1(C(=O)O)CCOCC1 (stereo not drawn)         -14
32  Cc1nc(-c2cccc(N3CCC(NC4CCSC4)CC3)c2)cs1 (stereo not drawn)       -1.58
33             COCCN1CCC(Nc2ccc(C#N)cc2F)CC1       -13.7
34        Cc1nc(-n2cnnc2)ccc1-c1cccc2c1CCNC2        6.99
35   Cc1c(Cl)cccc1S(=O)(=O)NCc1cnc(N(C)C)n1C       -8.26
36  COc1ccc(C)cc1CC(=O)NS(=O)(=O)c1ccc(C(N)=O)cc1       -6.98
37                COc1cccc(CNCc2ccccc2Cl)c1O        26.4
38  CCN(CC)CCc1nc2c([nH]1)CC(c1ccc(Cl)cc1)CNC2=O (stereo not drawn)       -3.81
39  Cn1nc2c(c1NC(=O)c1ccc(C3CCCN3C3CCC3)s1)CCC2 (stereo not drawn)       -6.85
40  Cn1cccc1C(=O)N1CC[C@H]2C[C@@H](c3ccncn3)O[C@@H]2C1       -9.87
41  COc1c(CNC2CCOc3c(F)cccc32)c(C)nn1C (stereo not drawn)       -3.45
42  Cc1nc(CN(C)CC2CCCN(CCc3ccc(Cl)cc3)C2)no1 (stereo not drawn)      0.0181
43  Cc1nn(C)c(C)c1-c1cnc(C2CCCN(C)C2)cn1 (stereo not drawn)        -7.8
44  O=C(c1cnccn1)N1CCN2C[C@H](OCc3ccccc3)C[C@H]2C1       -1.37
45             c1ccc(COc2ccccc2NC2CCOCC2)nc1       -4.09
46  COc1ccccc1N1CCCC(Nc2nccnc2C#N)C1 (stereo not drawn)       -6.29
47              COCCN(Cc1ccc(OC)nc1)Cc1cccs1        29.6
48  NC(=O)Cn1ccc(NC(=O)C2(c3cccc(Cl)c3)CC2)n1       -7.03
